Quick list: Hemolysis (HC10), concentration of compound at 10% hemolytic activity per entry.
System: human red blood cells
Assay: Hemolytic assay
Format: cell-based
Conditions: mean (n = 2)
Protocol: Hemolysis assays were conducted using reported protocols (see Supplementary File). […] Human whole blood was washed three times with three volumes of 0.9% NaCl and then resuspended in the same solution to a concentration of 0.5 x 10^8 cells/mL, as determined by the manual cell count in a Neubauer hemocytometer. […] Hemolysis was determined by measuring the supernatant absorbance at […] (OD405). The absorbance was measured using a Tecan M1000 Pro monochromator plate reader. […]

Known Hemolysis (HC10), concentration of compound at 10% hemolytic activity results, listed for orientation:
[[record]]
compound = "C=C[C@]1(C)C[C@@H](OC(=O)CNCCCNCCCCCCCCNCCCNCC(=O)O[C@@H]2C[C@@](C)(C=C)[C@@H](O)[C@H](C)[C@]34CCC(=O)[C@H]3[C@@]2(C)[C@H](C)CC4)[C@]2(C)[C@H](C)CC[C@]3(CCC(=O)[C@H]32)[C@@H](C)[C@@H]1O.O=C(O)C(F)(F)F.O=C(O)C(F)(F)F.O=C(O)C(F)(F)F.O=C(O)C(F)(F)F [Compound 9d]"
val = ">22.3 µM"

[[record]]
compound = "C=C[C@]1(C)C[C@@H](OC(=O)CNCCCNCCCCCCCCCCNCCCNCC(=O)O[C@@H]2C[C@@](C)(C=C)[C@@H](O)[C@H](C)[C@]34CCC(=O)[C@H]3[C@@]2(C)[C@H](C)CC4)[C@]2(C)[C@H](C)CC[C@]3(CCC(=O)[C@H]32)[C@@H](C)[C@@H]1O.O=C(O)C(F)(F)F.O=C(O)C(F)(F)F.O=C(O)C(F)(F)F.O=C(O)C(F)(F)F [Compound 9e]"
val = ">21.9 µM"

[[record]]
compound = "C=C[C@]1(C)C[C@@H](OC(=O)CNCCCNCCCCNCCCNCC(=O)O[C@@H]2C[C@@](C)(C=C)[C@@H](O)[C@H](C)[C@]34CCC(=O)[C@H]3[C@@]2(C)[C@H](C)CC4)[C@]2(C)[C@H](C)CC[C@]3(CCC(=O)[C@H]32)[C@@H](C)[C@@H]1O.O=C(O)C(F)(F)F.O=C(O)C(F)(F)F.O=C(O)C(F)(F)F.O=C(O)C(F)(F)F [Compound 9a]"
val = ">23.2 µM"


// below: Hemolysis (HC10), concentration of compound at 10% hemolytic activity requested for another compound
Exam item: Quote Hemolysis (HC10), concentration of compound at 10% hemolytic activity reported for C=C[C@]1(C)C[C@@H](OC(=O)CNCCCNCCCCCCNCCCNCC(=O)O[C@@H]2C[C@@](C)(C=C)[C@@H](O)[C@H](C)[C@]34CCC(=O)[C@H]3[C@@]2(C)[C@H](C)CC4)[C@]2(C)[C@H](C)CC[C@]3(CCC(=O)[C@H]32)[C@@H](C)[C@@H]1O.O=C(O)C(F)(F)F.O=C(O)C(F)(F)F.O=C(O)C(F)(F)F.O=C(O)C(F)(F)F [Compound 9b] please.
Marked response: >22.7 µM

###

tested on: MRSA ATCC 43300; assay: MIC, CO-ADD broth microdilution, MRSA; type: cell-based, methicillin-resistant S. aureus; details: Staphylococcus aureus; MRSA ATCC 43300; mean (n = 2); read-out: MIC MRSA
MEASURED_METRIC: MIC

[[record]]
molecule = "C=C[C@]1(C)C[C@@H](OC(=O)CNCCCNCCCCCCCNCCCNCC(=O)O[C@@H]2C[C@@](C)(C=C)[C@@H](O)[C@H](C)[C@]34CCC(=O)[C@H]3[C@@]2(C)[C@H](C)CC4)[C@]2(C)[C@H](C)CC[C@]3(CCC(=O)[C@H]32)[C@@H](C)[C@@H]1O.O=C(O)C(F)(F)F.O=C(O)C(F)(F)F.O=C(O)C(F)(F)F.O=C(O)C(F)(F)F"
measured_metric = "MIC"
val = "≤ 0.18 µM"

[[record]]
molecule = "C=C[C@]1(C)C[C@@H](OC(=O)CNCCCNCCCCCCCCCCNCCCNCC(=O)O[C@@H]2C[C@@](C)(C=C)[C@@H](O)[C@H](C)[C@]34CCC(=O)[C@H]3[C@@]2(C)[C@H](C)CC4)[C@]2(C)[C@H](C)CC[C@]3(CCC(=O)[C@H]32)[C@@H](C)[C@@H]1O.O=C(O)C(F)(F)F.O=C(O)C(F)(F)F.O=C(O)C(F)(F)F.O=C(O)C(F)(F)F"
measured_metric = "MIC"
val = "≤ 0.17 µM"

[[record]]
molecule = "C=C[C@]1(C)C[C@@H](OC(=O)CSCCN(CC)CC)[C@]2(C)[C@H](C)CC[C@]3(CCC(=O)[C@H]32)[C@@H](C)[C@@H]1O [Compound 2, Tiamulin, reference compound]"
measured_metric = "MIC"
val = "≤ 0.51 µM"


Exam item: For C=C[C@]1(C)C[C@@H](OC(=O)CNCCCNCCCCCCCCCCCCNCCCNCC(=O)O[C@@H]2C[C@@](C)(C=C)[C@@H](O)[C@H](C)[C@]34CCC(=O)[C@H]3[C@@]2(C)[C@H](C)CC4)[C@]2(C)[C@H](C)CC[C@]3(CCC(=O)[C@H]32)[C@@H](C)[C@@H]1O.O=C(O)C(F)(F)F.O=C(O)C(F)(F)F.O=C(O)C(F)(F)F.O=C(O)C(F)(F)F , write its MIC.
Marked response: ≤ 0.17 µM

Exam item: Write down MIC measured for item C=C[C@]1(C)C[C@@H](OC(=O)CNCCCNCCCCCCNCCCNCC(=O)O[C@@H]2C[C@@](C)(C=C)[C@@H](O)[C@H](C)[C@]34CCC(=O)[C@H]3[C@@]2(C)[C@H](C)CC4)[C@]2(C)[C@H](C)CC[C@]3(CCC(=O)[C@H]32)[C@@H](C)[C@@H]1O.O=C(O)C(F)(F)F.O=C(O)C(F)(F)F.O=C(O)C(F)(F)F.O=C(O)C(F)(F)F
Marked response: ≤ 0.18 µM

Exam item: Answer with the recorded MIC of C=C[C@]1(C)C[C@@H](OC(=O)CNCCCNCCCCNCCCNCC(=O)O[C@@H]2C[C@@](C)(C=C)[C@@H](O)[C@H](C)[C@]34CCC(=O)[C@H]3[C@@]2(C)[C@H](C)CC4)[C@]2(C)[C@H](C)CC[C@]3(CCC(=O)[C@H]32)[C@@H](C)[C@@H]1O.O=C(O)C(F)(F)F.O=C(O)C(F)(F)F.O=C(O)C(F)(F)F.O=C(O)C(F)(F)F only.
Marked response: 23.2 µM

Exam item: Tell me its MIC given C=C[C@]1(C)C[C@@H](OC(=O)CNCCCNCCCCCCCCNCCCNCC(=O)O[C@@H]2C[C@@](C)(C=C)[C@@H](O)[C@H](C)[C@]34CCC(=O)[C@H]3[C@@]2(C)[C@H](C)CC4)[C@]2(C)[C@H](C)CC[C@]3(CCC(=O)[C@H]32)[C@@H](C)[C@@H]1O.O=C(O)C(F)(F)F.O=C(O)C(F)(F)F.O=C(O)C(F)(F)F.O=C(O)C(F)(F)F as the entry.
Marked response: 5.57 µM
